Target: FGFR4 (h) (Homo sapiens, UniProt P22455)
Sequence (P22455 22-802): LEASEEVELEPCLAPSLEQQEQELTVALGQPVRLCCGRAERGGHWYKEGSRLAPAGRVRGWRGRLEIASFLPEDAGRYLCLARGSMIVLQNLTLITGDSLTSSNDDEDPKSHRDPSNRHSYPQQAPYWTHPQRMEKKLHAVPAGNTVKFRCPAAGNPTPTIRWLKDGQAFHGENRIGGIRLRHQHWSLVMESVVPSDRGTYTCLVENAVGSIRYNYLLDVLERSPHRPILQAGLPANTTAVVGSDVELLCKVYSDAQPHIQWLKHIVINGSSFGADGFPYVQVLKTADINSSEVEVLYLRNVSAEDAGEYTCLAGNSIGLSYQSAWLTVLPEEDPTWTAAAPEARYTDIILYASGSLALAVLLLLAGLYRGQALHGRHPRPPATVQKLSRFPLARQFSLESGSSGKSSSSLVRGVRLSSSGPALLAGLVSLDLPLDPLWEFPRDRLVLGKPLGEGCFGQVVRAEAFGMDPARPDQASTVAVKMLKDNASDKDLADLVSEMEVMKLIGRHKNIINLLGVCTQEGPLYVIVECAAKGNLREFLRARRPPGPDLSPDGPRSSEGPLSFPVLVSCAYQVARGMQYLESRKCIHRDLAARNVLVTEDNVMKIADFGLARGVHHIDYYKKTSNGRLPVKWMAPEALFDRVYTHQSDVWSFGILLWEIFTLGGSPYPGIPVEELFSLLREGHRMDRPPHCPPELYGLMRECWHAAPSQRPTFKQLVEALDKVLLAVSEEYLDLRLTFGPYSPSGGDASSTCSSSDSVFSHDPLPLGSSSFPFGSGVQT
Assay: FGFR4 (enzymatic assay), TR-FRET
Type: biochemical
Conditions: FGFR 4 pIC50, 5 μM ATP, 60 min; pIC50 = -log IC50 (M); average if tested multiple times
property.label: IC50 (M)
One number for each entry, in M.

Solved entries:
COc1cc(OC)cc(N(Cc2nccn2S(=O)(=O)N(C)C)c2ccc3ncc(-c4cccnc4)cc3c2)c1 [Compound 60]    2.51e-07
COc1cc(OC)cc(N(CCCN)c2ccc3ncc(-c4cnn(C)c4)cc3c2)c1 [Compound 11]    2e-08
COc1cc(OC)cc(C(CCO)c2ccc3ncc(-c4cnn(C)c4)cc3c2)c1 (stereo not drawn) [Compound 34]    4.17e-07
COc1cc(OC)cc(N(CCNC(C)C)c2ccc3ncc(-c4ccccc4)cc3c2)c1 [Compound 51]    1.38e-08
COc1cc(OC)cc(N(Cc2ncc[nH]2)c2ccc3ncc(-c4ccn(C)c4)cc3c2)c1 [Compound 62]    3.31e-09

// each listed compound needs a value for IC50
1. COc1cc(OC)cc(N(CC(O)C(F)(F)F)c2ccc3ncc(-c4cnn(C)c4)cc3c2)c1 (single isomer, unassigned) [Compound 24]
2. COc1cc(OC)cc(N(CCNC(C)C)c2ccc3ncc(-c4cnn(C)c4)cc3c2)c1 [Compound 1]
3. COc1cc(OC)cc(N(Cc2ncc[nH]2)c2ccc3ncc(-c4ccncc4)cc3c2)c1 [Compound 57]
4. CNCCN(c1ccc2ncc(-c3cnn(C)c3)cc2c1)c1c(F)c(OC)cc(OC)c1F [Compound 43]
5. COc1cc(OC)c(F)c(N(CCNC(C)C)c2ccc3ncc(-c4cnn(C)c4)cc3c2)c1 [Compound 2]
6. COc1cc(OC)cc(N(CCCN2CCCO2)c2ccc3ncc(-c4cnn(C)c4)cc3c2)c1 [Compound 19]
7. COc1cc(OC)cc(N(Cc2ncc[nH]2)c2ccc3ncc(N4CCOCC4)cc3c2)c1 [Compound 55]
8. COc1cc(OC)cc(N(CCNC(C)C)c2ccc3ncc(-c4cnn(CCO)c4)cc3c2)c1 [Compound 13]

1: 7.94e-09; 2: 1.38e-08; 3: 4.47e-09; 4: 2.63e-09; 5: 3.98e-09; 6: 6.03e-08; 7: 1.32e-07; 8: 8.71e-09

* * *

Target: FGFR3 (h) (Homo sapiens, UniProt P22607)
Sequence (P22607 23-806): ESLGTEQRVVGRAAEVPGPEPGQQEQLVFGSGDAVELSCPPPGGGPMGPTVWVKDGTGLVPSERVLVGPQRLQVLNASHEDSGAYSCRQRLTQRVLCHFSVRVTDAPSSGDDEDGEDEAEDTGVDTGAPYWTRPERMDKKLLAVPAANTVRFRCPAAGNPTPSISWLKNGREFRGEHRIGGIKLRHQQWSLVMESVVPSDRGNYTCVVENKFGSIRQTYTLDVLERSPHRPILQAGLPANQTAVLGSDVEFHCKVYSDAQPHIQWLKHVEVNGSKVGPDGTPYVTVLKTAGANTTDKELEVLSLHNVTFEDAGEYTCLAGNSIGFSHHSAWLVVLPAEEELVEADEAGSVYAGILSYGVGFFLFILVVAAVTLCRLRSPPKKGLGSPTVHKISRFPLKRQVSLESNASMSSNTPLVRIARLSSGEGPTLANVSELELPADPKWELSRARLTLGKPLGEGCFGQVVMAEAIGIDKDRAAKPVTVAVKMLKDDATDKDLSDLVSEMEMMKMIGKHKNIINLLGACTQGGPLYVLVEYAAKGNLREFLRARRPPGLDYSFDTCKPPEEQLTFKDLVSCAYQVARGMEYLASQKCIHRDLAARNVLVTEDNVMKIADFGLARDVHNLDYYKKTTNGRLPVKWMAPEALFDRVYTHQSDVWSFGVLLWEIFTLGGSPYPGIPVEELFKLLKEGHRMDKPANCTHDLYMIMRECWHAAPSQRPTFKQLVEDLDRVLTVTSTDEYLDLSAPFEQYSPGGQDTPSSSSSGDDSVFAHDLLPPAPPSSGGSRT
Assay: FGFR3 (enzymatic assay), TR-FRET
Type: biochemical
Details: 25 μM ATP, 60 min; pIC50 = -log IC50 (M); average if tested multiple times; read-out: hFGFR 3 pIC50 (converted)
Assign IC50 to each entry below.
Answers are plain numbers, in M.

COc1cc(OC)cc(N(Cc2ncc[nH]2)c2ccc3ncc(-c4cnn(C)c4)cc3c2)c1    1.26e-09

List the reported IC50 of each molecule below.
1. COc1cc(OC)cc(C(CC#N)c2ccc3ncc(-c4cnn(C)c4)cc3c2)c1 (stereo not shown)
2. COc1cc(OC)cc(N(CC#Cc2nccc(OC)n2)c2ccc3ncc(-c4cnn(C)c4)cc3c2)c1
3. COc1cc(OC)cc(N(Cc2ncc[nH]2)c2ccc3ncc(-c4ccncc4)cc3c2)c1

1: 1.78e-07; 2: 1.35e-08; 3: 1.05e-09

* * *

Provide the recorded BAF3-FGFR 4 (pIC50) for the entries that follow.
Molecular target: Ba/F3-FGFR4-transfected cells (Homo sapiens, UniProt P22455)
Sequence (P22455 whole entry, change not shown): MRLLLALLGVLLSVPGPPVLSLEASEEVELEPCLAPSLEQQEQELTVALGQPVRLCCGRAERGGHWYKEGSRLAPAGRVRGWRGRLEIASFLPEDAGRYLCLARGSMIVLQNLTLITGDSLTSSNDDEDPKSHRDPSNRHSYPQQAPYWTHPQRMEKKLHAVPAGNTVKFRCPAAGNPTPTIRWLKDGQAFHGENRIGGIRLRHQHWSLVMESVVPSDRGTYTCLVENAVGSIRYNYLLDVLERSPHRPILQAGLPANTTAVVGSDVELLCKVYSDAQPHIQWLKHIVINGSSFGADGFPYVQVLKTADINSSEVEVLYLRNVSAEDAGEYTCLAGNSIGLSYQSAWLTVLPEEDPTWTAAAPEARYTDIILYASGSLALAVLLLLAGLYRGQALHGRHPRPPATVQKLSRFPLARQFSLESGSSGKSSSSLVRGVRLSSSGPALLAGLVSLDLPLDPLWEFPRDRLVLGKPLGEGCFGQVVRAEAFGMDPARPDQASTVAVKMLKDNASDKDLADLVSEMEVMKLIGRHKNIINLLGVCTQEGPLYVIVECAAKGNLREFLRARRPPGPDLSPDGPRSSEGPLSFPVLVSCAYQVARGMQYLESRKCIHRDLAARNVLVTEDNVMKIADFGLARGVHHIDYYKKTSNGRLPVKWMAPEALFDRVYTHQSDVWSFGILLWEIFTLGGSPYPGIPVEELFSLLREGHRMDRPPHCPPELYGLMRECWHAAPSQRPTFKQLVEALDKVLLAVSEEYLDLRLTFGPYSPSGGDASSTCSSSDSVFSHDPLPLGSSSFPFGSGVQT
Test: Ba/F3-FGFR4 cellular proliferation assay, Alamar Blue
Format: cell-based
Settings: 24 hours
One number for each entry.

COc1cc(OC)cc(N(Cc2ncc[nH]2)c2ccc3ncc(-c4cccnc4)cc3c2)c1    6.02

What reported BAF3-FGFR 4 (pIC50) corresponds to COc1cc(OC)cc(N(Cc2ncc[nH]2)c2ccc3ncc(-c4ccncc4)cc3c2)c1 on Ba/F3-FGFR4-transfected cells (Homo sapiens, UniProt P22455)? 6.16

* * *

Can you tell me IC50 for the items I'm about to list?
Target: FGFR3 (h) (Homo sapiens)
Assay: FGFR3 (enzymatic assay), TR-FRET
Assay type: biochemical
Details: 25 μM ATP, 60 min; pIC50 = -log IC50 (M); average if tested multiple times; read-out: hFGFR 3 pIC50 (converted)
Returns: string containing the number followed by the unit.

COc1cc(OC)cc(N(CCCN2CCCC2=O)c2ccc3ncc(-c4cnn(C)c4)cc3c2)c1    1.55e-08 M
COc1cc(OC)cc(N(CCCN2CCCC2CNS(=O)(=O)C(F)(F)F)c2ccc3ncc(-c4cnn(C)c4)cc3c2)c1 (stereo not shown)    1.32e-09 M
COc1cc(OC)cc(C(CC(N)=O)c2ccc3ncc(-c4cnn(C)c4)cc3c2)c1 (stereo not shown)    2.19e-07 M

Consider the record given below.
Kindly state the measured IC50 obtained for COc1cc(OC)cc(N(CCO)c2ccc3ncc(N4CCOCC4)cc3c2)c1 with FGFR3 (h) (Homo sapiens). 1.45e-07 M

* * *

Target: UniProt:P21802
Sequence (P21802 22-821): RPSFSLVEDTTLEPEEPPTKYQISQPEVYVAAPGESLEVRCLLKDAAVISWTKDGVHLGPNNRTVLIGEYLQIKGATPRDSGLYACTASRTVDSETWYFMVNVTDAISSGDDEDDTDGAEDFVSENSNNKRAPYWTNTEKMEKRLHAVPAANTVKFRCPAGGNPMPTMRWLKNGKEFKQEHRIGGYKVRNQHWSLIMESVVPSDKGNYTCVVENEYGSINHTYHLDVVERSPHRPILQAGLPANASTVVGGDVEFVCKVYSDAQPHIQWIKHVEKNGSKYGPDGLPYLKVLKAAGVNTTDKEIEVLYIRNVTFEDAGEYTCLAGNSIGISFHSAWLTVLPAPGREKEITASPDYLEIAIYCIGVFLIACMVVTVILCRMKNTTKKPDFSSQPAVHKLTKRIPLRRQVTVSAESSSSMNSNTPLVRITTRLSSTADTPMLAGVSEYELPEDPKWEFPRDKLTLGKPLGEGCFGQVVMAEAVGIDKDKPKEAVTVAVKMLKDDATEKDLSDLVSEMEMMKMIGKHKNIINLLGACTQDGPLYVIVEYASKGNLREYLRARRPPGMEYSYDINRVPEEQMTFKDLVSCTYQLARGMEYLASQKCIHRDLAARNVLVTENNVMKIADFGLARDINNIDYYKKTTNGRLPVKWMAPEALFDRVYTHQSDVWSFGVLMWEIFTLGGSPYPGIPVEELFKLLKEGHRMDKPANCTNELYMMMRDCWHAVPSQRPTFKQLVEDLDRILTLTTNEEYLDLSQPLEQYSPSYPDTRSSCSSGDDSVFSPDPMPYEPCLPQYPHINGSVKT
Experiment: FGFR2 (enzymatic assay), TR-FRET
Assay type: biochemical
Settings: 0.4 μM ATP, 60 min; pIC50 = -log IC50 (M); average if tested multiple times; read-out: FGFR 2 pIC50 (converted)
property.label: IC50 (M)
Answers are plain numbers, in M.

C#CCN(c1cc(OC)cc(OC)c1)c1ccc2ncc(-c3cnn(C)c3)cc2c1    3.02e-08

Can you give me IC50 for all of these, one by one?
1. COc1cc(OC)c(F)c(N(CCNC(C)C)c2ccc3ncc(-c4cnn(C)c4)cc3c2)c1
2. COc1cc(OC)cc(N(Cc2ncc[nH]2)c2ccc3ncc(-c4cccnc4)cc3c2)c1

1: 3.24e-09; 2: 3.02e-09

// each listed compound needs a value for IC50
1. COc1cc(OC)cc(N(CC#Cc2ncccc2OC)c2ccc3ncc(-c4cnn(C)c4)cc3c2)c1
2. COc1cc(OC)cc(N(Cc2ncc[nH]2)c2ccc3ncc(-c4ccncc4)cc3c2)c1

["1.2e-07", "2.29e-09"]

* * *

Structures can show the parent of a compound that is named as a salt.
property.label: melting point

Known results for compounds:
COc1cc(OC)cc(N(CCNC(C)C)c2ccc3ncc(-c4cnn(CCO)c4)cc3c2)c1 (as salt: HCl) (hydrate or solvate)    86 to 115 °C
COc1cc(OC)cc(N(CCO)c2ccc3ncc(-c4cnn(C)c4)cc3c2)c1    195 to 196 °C

Here is the next item to consider.
Can you share its melting point? I mean this compound: COc1cc(OC)cc(C(O)c2ccc3ncc(-c4cnn(C)c4)cc3c2)c1 (stereo not drawn) 184 to 193 °C

* * *

Molecular target: FGFR4 (h) (Homo sapiens, UniProt P22455)
Test: FGFR4 (enzymatic assay), TR-FRET
Assay type: biochemical
Conditions: FGFR 4 pIC50, 5 μM ATP, 60 min; pIC50 = -log IC50 (M); average if tested multiple times
property.label: IC50 (M)
Answers are plain numbers, in M.

COc1cc(OC)cc(N(Cc2ncc[nH]2)c2ccc3ncc(C4CCNCC4)cc3c2)c1 [Compound 48a]    8.32e-07

Lab note: each molecule below needs its IC50 filled in.
1. C#CCN(c1cc(OC)cc(OC)c1)c1ccc2ncc(-c3cnn(C)c3)cc2c1
2. COc1cc(OC)cc(N(Cc2ncccn2)c2ccc3ncc(-c4cnn(C)c4)cc3c2)c1
3. COc1cc(OC)cc(N(Cc2ncc[nH]2)c2ccc3ncc(-c4cccnc4)cc3c2)c1
4. COc1cc(OC)cc(N(CC#Cc2nccn2C)c2ccc3ncc(-c4cnn(C)c4)cc3c2)c1
5. COc1cc(OC)cc(N(CCO)c2ccc3ncc(-c4ccn(C)c4)cc3c2)c1
6. COc1cc(OC)cc(C(=O)c2ccc3ncc(-c4cnn(C)c4)cc3c2)c1

["1.51e-07", "1.17e-07", "7.41e-09", "3.16e-08", "2.09e-08", "2.57e-07"]

* * *

Biological target: FGFR3 (h) (Homo sapiens)
Test: FGFR3 (enzymatic assay), TR-FRET
Format: biochemical
Settings: 25 μM ATP, 60 min; pIC50 = -log IC50 (M); average if tested multiple times; read-out: hFGFR 3 pIC50 (converted)
Would you mind telling me the reported IC50 of each entry?
One number for each entry, in M.

COc1cc(OC)cc(N(CCNC(C)C)c2ccc3ncc(-c4cnn(CCS(C)(=O)=O)c4)cc3c2)c1    3.47e-09
COc1cc(OC)cc(N(CCO)c2ccc3ncc(-c4ccn(C)c4)cc3c2)c1    2.69e-09
COc1cc(OC)cc(N(CCO)c2ccc3ncc(-c4cnn(C)c4)cc3c2)c1    4.17e-09
COc1cc(OC)c(F)c(N(CCNC(C)C)c2ccc3ncc(-c4cnn(C)c4)cc3c2)c1F    3.39e-09
COc1cc(OC)cc(N(CCCNCC(F)(F)F)c2ccc3ncc(-c4cnn(C)c4)cc3c2)c1    2.29e-08

Fill in IC50 for each of the 3 molecules listed.
1. COc1cc(OC)cc(N(CCNC(C)C)c2ccc3ncc(-c4ccccc4)cc3c2)c1
2. COc1cc(Nc2ccc3ncc(-c4cnn(C5CCCCO5)c4)cc3c2)cc(OC)c1 (stereo not drawn)
3. COc1cc(OC)cc(N(Cc2ncc[nH]2)c2ccc3ncc(-c4ccccc4)cc3c2)c1

1. 7.94e-09
2. 3.72e-08
3. 8.51e-09

List reported IC50 for each of these molecules:
1. COc1cc(OC)cc(N(Cc2ncc[nH]2)c2ccc3ncc(-c4cccnc4)cc3c2)c1
2. COc1cc(OC)cc(C(CCNC(C)C)c2ccc3ncc(-c4cnn(C)c4)cc3c2)c1 (stereo not drawn)
3. COc1cccnc1C#CCN(c1ccc2ncc(-c3cnn(C)c3)cc2c1)c1c(F)c(OC)cc(OC)c1F
4. COc1cc(OC)cc(C(O)c2ccc3ncc(-c4cnn(C)c4)cc3c2)c1 (stereo not drawn)
5. COc1cc(OC)cc(N(CC2CCC(=O)N2)c2ccc3ncc(-c4cnn(C)c4)cc3c2)c1 (stereo not drawn)
6. COc1cc(OC)cc(N(CCNC(C)C)c2ccc3ncc(-c4cnn(C5CCCCO5)c4)cc3c2)c1 (stereo not drawn)
7. COc1cc(OC)cc(N(CCNC(C)C)c2ccc3ncc(-c4cn[nH]c4)cc3c2)c1

1.74e-09
3.89e-08
2.37e-09
2.34e-07
1.7e-09
2.4e-09
3.39e-09

Required: IC50, one value per molecule below.
1. COc1cc(OC)cc(N(Cc2nccn2S(=O)(=O)N(C)C)c2ccc3ncc(-c4cccnc4)cc3c2)c1
2. COc1cc(OC)cc(N(CC2CCN(c3nccc(OC)n3)C2)c2ccc3ncc(-c4cnn(C)c4)cc3c2)c1 (stereo not drawn)
3. COc1cc(OC)cc(N(Cc2ncc[nH]2)c2ccc3ncc(N4CCOCC4)cc3c2)c1

3.16e-08
9.12e-07
2.04e-08

Param readout = IC50; param system = FGFR3 (h) (Homo sapiens); param query = COc1cc(OC)cc(N(CC(O)C(F)(F)F)c2ccc3ncc(-c4cnn(C)c4)cc3c2)c1 (single isomer, unassigned) [Compound 25] ; response: value 5.89e-09

Reference for the values: patent US10039759B2
